Where do the numbers come from? From PubChem BioAssay (NCI).

tested on: SF-295 CNS; assay: NCI-60 one-dose screen, 48 h; settings: 10 µM unless noted
Compounds without any hit were thinned out: in the full panel of roughly 83,000, 20% have a hit. Calls of active or inactive are those of the source. How the source made its calls: active means growth percent below 10; inactive means the rest.
Answer with one of the outcomes active, inactive

// known answers, use as guide
compound="CN1C(=O)N(C)C2C1NC(=S)N2/N=C/C=C/c1ccccc1[N+](=O)[O-] (stereo not given)" assigned_label=active
compound="CCN(CC)CCCC(C)Nc1ccc2cc(OC)ccc2n1 (stereo not given)" assigned_label=inactive
compound=N/C(=N\c1nc2ccccc2s1)NC(=NC1CCCCC1)NC1CCCCC1 assigned_label=active
compound=O=C(CCCCCCN1CC(=O)N2[C@@H](C3CCCCC3)c3[nH]c4ccccc4c3C[C@H]2C1=O)NO assigned_label=inactive

From here, focus on the item given below.
Name the outcome recorded for CCN(CC)c1ccc(/C=N/NC(=O)c2ccc(Nc3ccnc(C(F)(F)F)c3)cc2)c(O)c1 in the assay.
active
